Where do the numbers come from? From paper PMC11434840.

Test system: Escherichia coli ATCC 25922
PROCEDURE_DETAILS: Antimicrobial agar cup-plate assay, E. coli
Assay type: cell-based
EXPERIMENTAL_CONDITIONS: 0.1 mL of compound in DMF, overnight incubation, mean ± SD, at least three experiments
PROPERTY: Inhibition Zone (mm) E. coli
Please respond with the number in mm and leave the unit unwritten.

Data point: CCc1cc2c(C)cc(=O)oc2cc1OCC(=O)c1ccccc1 ; Inhibition Zone (mm) E. coli = 20

Data point: CCc1cc2c(-c3ccccc3)cc(=O)oc2c2c1oc1ccccc12 ; Inhibition Zone (mm) E. coli = 17

Data point: CCc1cc2c(-c3ccccc3)cc(=O)oc2cc1OCC(=O)c1ccc(C)cc1 ; Inhibition Zone (mm) E. coli = 20

Data point: CCc1cc2c(C)cc(=O)oc2c2c(-c3ccc(C)cc3)coc12 ; Inhibition Zone (mm) E. coli = 30

Data point: CCc1cc2c(C)cc(=O)oc2c2c(-c3ccc(OC)cc3)coc12 ; Inhibition Zone (mm) E. coli = 24

----------
Kindly state melting point for each of the entries shown.

Data point: CCc1cc2c(-c3ccccc3)cc(=O)oc2c2c3c(oc12)CCCC3 ; melting point = 108 to 110 °C

Data point: CCc1cc2c(C)cc(=O)oc2c2c(-c3ccc(OC)cc3)coc12 ; melting point = 110 to 111 °C

Data point: CCc1cc2c(-c3ccccc3)cc(=O)oc2c2c(-c3ccc(OC)cc3)coc12 ; melting point = 150 to 153 °C

Data point: CCc1cc2c(C)cc(=O)oc2cc1OC1CCCCC1=O (stereo not drawn) ; melting point = 160 to 162 °C

Data point: CCc1cc2c(C)cc(=O)oc2cc1OCC(=O)c1ccc(C)cc1 ; melting point = 136 to 139 °C

Data point: CCc1cc2c(C)cc(=O)oc2c2c(C)c(C)oc12 ; melting point = 199 to 201 °C

Data point: CCc1cc2c(-c3ccccc3)cc(=O)oc2cc1OC(C)C(C)=O (stereo not drawn) ; melting point = 100 to 102 °C

Data point: CCc1cc2c(C)cc(=O)oc2cc1OCC(=O)c1ccc(OC)cc1 ; melting point = 162 to 164 °C

Data point: CCc1cc2c(-c3ccccc3)cc(=O)oc2c2c1oc1ccccc12 ; melting point = 120 to 122 °C

----------
System: Staphylococcus aureus ATCC 25923
PROCEDURE_DETAILS: Antimicrobial agar cup-plate assay, S. aureus
Format: cell-based
EXPERIMENTAL_CONDITIONS: 0.1 mL of compound in DMF, overnight incubation, mean ± SD, at least three experiments
PROPERTY: Inhibition Zone (mm) S. aureus
Please respond with the number in mm and leave the unit unwritten.

Item CCc1cc2c(C)cc(=O)oc2c2c(-c3ccccc3)coc12 [Compound 8a] was tested on Staphylococcus aureus ATCC 25923; the reported Inhibition Zone (mm) S. aureus is 25

Item CCc1cc2c(-c3ccccc3)cc(=O)oc2c2c3c(oc12)CCCC3 [Compound 5b] was tested on Staphylococcus aureus ATCC 25923; the reported Inhibition Zone (mm) S. aureus is 26

Item CCc1cc2c(-c3ccccc3)cc(=O)oc2cc1OC(C)C(C)=O (stereo not drawn) [Compound 2b] was tested on Staphylococcus aureus ATCC 25923; the reported Inhibition Zone (mm) S. aureus is 22

Item CCc1cc2c(C)cc(=O)oc2cc1OCC(=O)c1ccc(C)cc1 [Compound 7b] was tested on Staphylococcus aureus ATCC 25923; the reported Inhibition Zone (mm) S. aureus is 24

Item CCc1cc2c(C)cc(=O)oc2cc1OC(C)C(C)=O (stereo not drawn) [Compound 2a] was tested on Staphylococcus aureus ATCC 25923; the reported Inhibition Zone (mm) S. aureus is 14

Item CCc1cc2c(C)cc(=O)oc2c2c1oc1ccccc12 [Compound 6a] was tested on Staphylococcus aureus ATCC 25923; the reported Inhibition Zone (mm) S. aureus is 30

Item CCc1cc2c(C)cc(=O)oc2c2c3c(oc12)CCCC3 [Compound 5a] was tested on Staphylococcus aureus ATCC 25923; the reported Inhibition Zone (mm) S. aureus is 30

Item NC[C@H]1O[C@H](O[C@H]2[C@H](O)[C@@H](O[C@H]3O[C@H](CO)[C@@H](O)[C@H](N)[C@H]3O)[C@H](N)C[C@@H]2N)[C@H](N)C[C@@H]1O [Tobramycin, reference compound] was tested on Staphylococcus aureus ATCC 25923; the reported Inhibition Zone (mm) S. aureus is 21

Item CCc1cc2c(C)cc(=O)oc2cc1OCC(=O)c1ccccc1 [Compound 7a] was tested on Staphylococcus aureus ATCC 25923; the reported Inhibition Zone (mm) S. aureus is 28

Item CCc1cc2c(-c3ccccc3)cc(=O)oc2cc1OC1CCCCC1=O (stereo not drawn) [Compound 4b] was tested on Staphylococcus aureus ATCC 25923; the reported Inhibition Zone (mm) S. aureus is 29

Item CCc1cc2c(-c3ccccc3)cc(=O)oc2c2c(-c3ccc(OC)cc3)coc12 [Compound 8f] was tested on Staphylococcus aureus ATCC 25923; the reported Inhibition Zone (mm) S. aureus is 20

Item CCc1cc2c(C)cc(=O)oc2c2c(C)c(C)oc12 [Compound 3a] was tested on Staphylococcus aureus ATCC 25923; the reported Inhibition Zone (mm) S. aureus is 30
